Sourced from patent US20230091047A1

# Tested on: HBV (HepG2.117 cell line, inducibly HBV producing)
# procedureDetails: Anti-HBV activity: intracellular HBV DNA by real-time PCR in HepG2.117 cells after 3 days of treatment
# Format: cell-based, hepatitis B virus
# experimentalConditions: Hepatitis B virus, HepG2.117, 72 h, HepG2.117 cells, 3 days of treatment, intracellular HBV DNA by real-time PCR; mean value; read-out: EC50 (μM, mean value)
Checkbox rule: EC50 lower than 0.6 µM = Yes; EC50 not lower than 0.6 µM = No.

Some solved entries appear below for comparison.
compound=COc1ccccc1-n1c(NCc2ccc(C(F)(F)F)cc2)nc2c(c1=O)CCN(C(=O)c1ccc(Cl)c(Cl)c1)C2 group=No
compound="COc1ccc(CNc2nc3c(c(=O)[nH]2)CC(C)N(C(=O)c2ccc(Cl)c(Cl)c2)C3)cc1 (stereo not drawn)" group=No
compound=COc1ccccc1-n1c(NCC2CCN(C(C)=O)CC2)nc2c(c1=O)CCN(C(=O)c1ccc(Cl)c(Cl)c1)C2 group=No
compound="CNC(=O)c1ccc(-n2c(N3CC[C@@H]3C)nc3c(c2=O)C[C@@H](C)N(C(=O)c2ccc(Cl)c(Cl)c2)C3)cc1 (single isomer, unassigned)" group=Yes
compound="CNC(=O)c1ccc(-n2c(N[C@@H](C)c3ccncc3)nc3c(c2=O)C[C@@H](C)N(C(=O)c2ccc(Cl)c(Cl)c2)C3)cc1 (single isomer, unassigned) [Compound C375b]" group=No

Exercise: Just wondering, is EC50 of CC(C)Nc1nc2c(c(=O)n1-c1ccc(-c3ccn4ccnc4c3)cc1)C[C@@H](C)N(C(=O)c1ccc(Cl)c(Cl)c1)C2 below 0.6 µM?
Key: Yes

* * *

We begin with a simple list: items and their reported CC50 at 4 days.
# procedureDetails: in vitro
# Format: cell-based
# experimentalConditions: human, HepG2 or HepG2.117 cells, 4-days incubation (values marked with *), ATPlite; mean value
Respond with the bare value in µM.

Known CC50 at 4 days results, listed for orientation:
structurestring=COc1ccccc1CNc1nc2c(c(=O)n1-c1ccccc1OC)CCN(C(=O)c1ccc(Cl)c(Cl)c1)C2 recordedendpoint="CC50 at 4 days" recordedvalue=28.9
structurestring=COc1ccccc1-n1c(NCC(C)C)nc2c(c1=O)CCN(C(=O)c1ccc(Cl)c(Cl)c1)C2 recordedendpoint="CC50 at 4 days" recordedvalue=26.2
structurestring=COc1ccccc1-n1c(SC)nc2c(c1=O)CCN(C(=O)c1ccc(Cl)c(Cl)c1)C2 recordedendpoint="CC50 at 4 days" recordedvalue=36.8

Now turn to the next compound.
Item: COc1ccccc1-n1c(NCCc2ccccc2)nc2c(c1=O)CCN(C(=O)c1ccc(Cl)c(Cl)c1)C2 | CC50 at 4 days: 23.1

* * *

# Test system: HepG2 cells
# procedureDetails: in vitro
# Type: cell-based
# experimentalConditions: HepG2 or HepG2.117 cells, ATPlite, 3-days incubation (not marked with *), mean value; read-out: CC50 (μM, mean value)
# Method: Cytotoxicity of the compounds was tested using HepG2 or HepG2.117 cells, incubated for 3 or 4 days in the presence of compounds. The viability of the cells was assessed using the PERKIN ELMER ATPlite Luminescence Assay System.”
We begin with a simple list: items and their reported CC50.
Respond with the bare value in µM.

Known CC50 results, listed for orientation:
compound="CNC(=O)c1ccc(-n2c(N[C@H](C)c3ccc(OC(F)F)cc3)nc3c(c2=O)C[C@@H](C)N(C(=O)c2ccc(Cl)c(Cl)c2)C3)cc1 [Compound C411b]" measuredtarget="HepG2 cells" recordedendpoint=CC50 recordedvalue=42.1
compound="CC(C)Nc1nc2c(c(=O)n1-c1ccc(-c3nccn3C)cc1Cl)C[C@@H](C)N(C(=O)c1ccc(Cl)c(Cl)c1)C2 (single isomer, unassigned) [Compound C392b]" measuredtarget="HepG2 cells" recordedendpoint=CC50 recordedvalue=26.7
compound="CNC(=O)c1ccc(-n2c(N[C@@H](C)C3CC3)nc3c(c2=O)C[C@@H](C)N(C(=O)c2ccc(Cl)c(C(F)(F)F)c2)C3)c(Cl)c1 (single isomer, unassigned) [Compound C676b]" measuredtarget="HepG2 cells" recordedendpoint=CC50 recordedvalue=28.7

Item: COc1cc(C(=O)NC2CC2)ccc1-n1c(NC(C)C)nc2c(c1=O)C[C@@H](C)N(C(=O)c1ccc(Cl)c(C(F)(F)F)c1)C2 (single isomer, unassigned) [Compound C678b] | CC50: 44.1

Item: CNC(=O)c1ccc(-n2c(N[C@@H](C)C3CC3)nc3c(c2=O)C[C@@H](C)N(C(=O)c2ccc(Cl)c(Cl)c2)C3)c(Cl)c1 (single isomer, unassigned) [Compound C387b] | CC50: 36.8

* * *

# procedureDetails: in vitro
# Type: cell-based
# experimentalConditions: human, HepG2 or HepG2.117 cells, ATPlite, 3-days incubation (not marked with *), mean value
We begin with a simple list: items and their reported CC50 at 3 days.

Known CC50 at 3 days results, listed for orientation:
molecule="CNC(=O)c1ccc(-n2c(N3CCOC(C)C3)nc3c(c2=O)C[C@@H](C)N(C(=O)c2ccc(Cl)c(Cl)c2)C3)cc1 (some centres unmarked) [Compound C470]" recordedendpoint="CC50 at 3 days" recordedvalue="> 50 µM"
molecule="CNC(=O)c1ccc(-n2c(NCc3nnn(C)c3C(F)(F)F)nc3c(c2=O)C[C@@H](C)N(C(=O)c2ccc(Cl)c(Cl)c2)C3)cc1 [Compound C539]" recordedendpoint="CC50 at 3 days" recordedvalue="> 50 µM"
molecule="COc1ccc([C@H](C)Nc2nc3c(c(=O)n2-c2ccc(NC(C)=O)cc2)C[C@@H](C)N(C(=O)c2ccc(Cl)c(Cl)c2)C3)cc1 (single isomer, unassigned) [Compound C410b]" recordedendpoint="CC50 at 3 days" recordedvalue="> 50 µM"
molecule="CNC(=O)c1ccc(-n2c(NC(C)C)nc3c(c2=O)C[C@@H](C)N(C(=O)c2cc4cc(Cl)ccc4s2)C3)cc1 [Compound C579]" recordedendpoint="CC50 at 3 days" recordedvalue="> 50 µM"
molecule="CNC(=O)c1ccc(-n2c(N[C@H]3C[C@H]4CC[C@]3(C)C4(C)C)nc3c(c2=O)C[C@@H](C)N(C(=O)c2ccc(Cl)c(Cl)c2)C3)cc1 [Compound C621]" recordedendpoint="CC50 at 3 days" recordedvalue="5.99 µM"
molecule="CNC(=O)c1ccc(-n2c(NC(C)C)nc3c(c2=O)C[C@@H](C)N(C(=O)c2ccc(Br)c(C)c2F)C3)cc1 [Compound C584]" recordedendpoint="CC50 at 3 days" recordedvalue="> 50 µM"

Item: CNC(=O)c1ccc(-n2c(N[C@H](C)C(C)(C)C)nc3c(c2=O)C[C@@H](C)N(C(=O)c2ccc(Cl)c(Cl)c2)C3)cc1 (single isomer, unassigned) [Compound C459a] | CC50 at 3 days: 31.9 µM

Item: CNC(=O)c1cc(-n2c(N[C@@H](C)c3ccc(F)cc3)nc3c(c2=O)C[C@@H](C)N(C(=O)c2ccc(Cl)c(Cl)c2)C3)[nH]n1 [Compound C432] | CC50 at 3 days: 21.4 µM

* * *

# Test system: HBV (HepG2.117 cell line, inducibly HBV producing)
# procedureDetails: Anti-HBV activity: intracellular HBV DNA by real-time PCR in HepG2.117 cells after 3 days of treatment
# Format: cell-based, hepatitis B virus
# experimentalConditions: Hepatitis B virus, HepG2.117, 72 h, HepG2.117 cells, 3 days of treatment, intracellular HBV DNA by real-time PCR; mean value; read-out: EC50 (μM, mean value)
Checkbox rule: EC50 lower than 0.4 µM = 1 (yes); EC50 not lower than 0.4 µM = 0 (no).

Some solved entries appear below for comparison.
compound="C[C@@H]1Cc2c(nc(NCc3ccncn3)n(-c3ccc(S(C)(=O)=O)cc3)c2=O)CN1C(=O)c1ccc(Cl)c(Cl)c1 [Compound C150]" group="0 (no)"
compound="CNC(=O)c1ccc(-n2c(NC)nc3c(c2=O)C[C@@H](C)N(C(=O)c2ccc(Cl)c(Cl)c2)C3)nc1 [Compound C331]" group="0 (no)"
compound="CC(C)Nc1nc2c(c(=O)n1-c1ccc(S(C)(=O)=O)cc1)C[C@@H](c1ccc(F)cc1)N(C(=O)c1ccc(Cl)c(Cl)c1)C2 (single isomer, unassigned) [Compound C110A]" group="0 (no)"
compound="CC(Nc1nc2c(c(=O)n1-c1ccc(S(C)(=O)=O)cc1)C[C@@H](C)N(C(=O)c1ccc(Cl)c(Cl)c1)C2)C1CC1 (some centres unmarked) [Compound C199]" group="1 (yes)"

Exercise: Just wondering, is EC50 of COc1ccc(CNc2nc3c(c(=O)n2-c2ccc(S(C)(=O)=O)cc2)C[C@H](C)N(C(=O)c2ccc(Cl)c(Cl)c2)C3)cc1 [Compound C140] below 0.4 µM?
Key: 0 (no)

Exercise: Just wondering, is EC50 of COc1ccc(CNc2nc3c(c(=O)[nH]2)CCN(C(=O)c2ccc4occc4c2)C3)cc1 [Compound C81] below 0.4 µM?
Key: 0 (no)

Exercise: Just wondering, is EC50 of CC(C)Nc1nc2c(c(=O)n1-c1ccc(S(C)(=O)=O)cc1)CCN(C(=O)C1Cc3ccccc3O1)C2 (centres unmarked) [Compound C360] below 0.4 µM?
Key: 0 (no)
